Biological target: T1, Recombinant human CD4 (R&D Systems, Cat. 10327-CD) (human, UniProt P01730 26-390, limits assumed)
T1 construct: Bought soluble recombinant protein used as analyte at 100 nM; also called huCD4
Test: BLI (Octet Red384), non-clonal supernatant on AMC sensor, 100 nM human CD4, 1:1 local fit;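 also: hybridoma antibodies captured from supernatant, single CD4 concentration as analyte, association and dissociation phases fitted together, giving single-point kinetic estimates per supernatant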
Let's look at some binders and their measured log10 of koff.
Note: values are log10 of koff expressed in s⁻¹.

Take a look at these entries with their results.
{"columns": ["binder", "numeric-readout"],
 "data": [
  ["75110_08M20A (antibody, V domains shown, Non-clonal AlivaMab Mouse Kappa hybridoma supernatant, captured by anti-mouse IgG Fc (human V regions, mouse Fc)) VH: QVQLQESDPGLVKPSETLSLTCTVSGGSISSYYWSWIRQPAGKGLEWIGRIYASGSTNYNPSLKSRVTMSVDTSKNQFSLKLSSVTAADTAVYYCARDREGYYYYGMDVWGQGTTVTVSS VL: DIQMTQSPSSLSASVGDRVTITCQASQDISKYLNWYQQKPGKAPNLLIYAASNLETGVPSRFSGSGSGTDFTFTISSLQPEDIAAYYCQQYDSLPITFGQGTRLEIK", -3.28],
  ["75110_06K03A (antibody, V domains shown, Non-clonal AlivaMab Mouse Kappa hybridoma supernatant, captured by anti-mouse IgG Fc (human V regions, mouse Fc)) VH: QVQLQESGPGLVKPSETLSLTCTVSGGSISTYYWSWIRQPAGKGLEWIGRINTSGSTTYNPSLKSRVTMSVDTSKNQFSLKLSSVTAADTAVYYCARELERYYYYGMDVWGQGTTVTVSS VL: DIQMTQSPSSLSASVGDRVTITCQASQDISNYLNWYQQKPGKAPKLLIYYASILETGVPSRFSGSGSGTDFTFTISSLQPEDIATYYCQQYDSLPLTFGGGTKVEIK", -2.72],
  ["75110_05E05A (antibody, V domains shown, Non-clonal AlivaMab Mouse Kappa hybridoma supernatant, captured by anti-mouse IgG Fc (human V regions, mouse Fc)) VH: QVQLQESGPGLVKPSETLSLTCTVSGGSIGSYYWSWIRQPAGKGLEWIGRIYTSGSTNYNPSLKSRVTMSFDTSKNQFSLKLNSVTAADTAVYYCATDGGVGDSLDYWGQGTLVTVSS VL: DIVMTQTPLSLPVTPGEPASISCRSSQSLLDSDDGNTYLDWYLQKPGQSPQLLIYTLSYRASGVPDRFSGSGSGTDFTLKISRVEAEDVGVYYCMQHIEFPFTFGPGTKVDIK", -3.89],
  ["75110_06G04A (antibody, V domains shown, Non-clonal AlivaMab Mouse Kappa hybridoma supernatant, captured by anti-mouse IgG Fc (human V regions, mouse Fc)) VH: QVQLLESGPGLVKPSETLSLTCTVSGGSISSYYWSWIRQPAGKGLEWIGRIYISGSTNYNPSLKSRVTMSIDTSENQFSLNLSSVTAADTAVYYCARELERPYYYGMDVWGQGTTVTVSS VL: DIQMTQSPSSLSASVGDRVTITCQASQDISNYLNWYQQKPGKAPKLLIYNASTLETGVPSRFSGSGSGTDFTFTISSLQPEDIATYYCQQYDNLPLTFGGGTKVEFK", -3.00]
]}

Now let's try a different one.
The value of log10 of koff measured for the binder 75110_06C16A (antibody, V domains shown, Non-clonal AlivaMab Mouse Kappa hybridoma supernatant, captured by anti-mouse IgG Fc (human V regions, mouse Fc)) VH: QVQLQESGPGLVTPSETLSLSCTVSGGSISDYYWSWIRQPGGKGLEWIGRIYSSGSTNYNPSLKSRVTMSVDTSKNQFSLKLSSVTAADTAVYFCARDREDYYYYGMDVWGQGTTVTVSS VL: DIQMTQSPSSLSASVGDRVTITCQASHDISNYLNWYQQKPGKAPKLLIYAASNLETGVPSRFSGSGSGTDFSFTISSLQPEDIATYYCQQYDHLPLTFGGGTKVEIK turned out to be -2.62
